Give measured ELISA signal value of Phage scFv for each item. Keep answers brief.
Target: T1, B7-H3 antigen H4M (human 4Ig B7-H3 amino acids 27-461 with N-terminal 10 His tag and C-terminal Myc tag) (human, UniProt Q5ZPR3 27-461, Biotinylated in the phage ELISA (labeling amount approximately 2.5, sites not stated); not biotinylated in the scFv protein ELISA)
T1 construct: Expressed in Expi293; also called biotinylated B7-H3 antigen H4M; not shown: any linker between the tags and the B7-H3 part is not described
T1 sequence: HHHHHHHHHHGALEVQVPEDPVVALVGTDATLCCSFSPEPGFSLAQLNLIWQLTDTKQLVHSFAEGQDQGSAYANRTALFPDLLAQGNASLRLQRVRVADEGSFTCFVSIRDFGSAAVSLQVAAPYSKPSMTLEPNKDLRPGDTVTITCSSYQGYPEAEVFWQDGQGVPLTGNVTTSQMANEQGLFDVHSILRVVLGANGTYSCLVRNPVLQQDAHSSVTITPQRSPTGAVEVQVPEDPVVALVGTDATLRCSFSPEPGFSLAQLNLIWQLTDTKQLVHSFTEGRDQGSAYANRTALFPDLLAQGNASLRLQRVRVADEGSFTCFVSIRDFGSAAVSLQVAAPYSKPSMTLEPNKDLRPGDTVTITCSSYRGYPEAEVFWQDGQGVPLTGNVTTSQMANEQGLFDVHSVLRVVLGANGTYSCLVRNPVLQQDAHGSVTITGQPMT
Experiment: phage ELISA, scFv displayed on phage, biotinylated H4M captured on streptavidin
Please respond with the number in absorbance 450 nm and leave the unit unwritten.

Please give the measured ELISA signal value of Phage scFv for this binder: P1D1 scFv (scFv) scFv: QVQLVQSGAEVKKPGESLKISCKGSGYSFTSYWIGWVRQMPGKGLEWMGIIYPGDSDTRYSPSFQGQVTISADKSISTAYLQWSSLKASDTAMYYCARRSVAGLDYWGQGTLVTVSSGSASAPTLGQGGGGGSGGGGSGGGGSKTVVTQPPSASGTPGQRVTISCSGSSSNIGSKYVYWYQQLPGTAPRLLIYRNNQRPSGVPDRFSGSKSGTSASLAISGLRSEDESDYYCASWDDRLKGYAFGTGTKVTVL 3.65

Please give the measured ELISA signal value of Phage scFv for this binder: P2E5 scFv (scFv) scFv: QVTLKESGGGLVQPGGSLRLSCAASGFTFSNSYMTWVRQAPGMGLEWVASMKPDGSVKHYVDSVKGRFTISRDNTKNSLDLQMNSLRAEDTAVYYCSSYDTRWGWFDPWGEGTLVTVSSGSASAPTLGQGGGGGSGGGGSGGGGSQTVVTQEPSFSVSPGGTVTLTCGLNSGSVSTSYFPSWYQQTPGQAPRTLIYNTNTRSSGVPDRFSGSILGNKAALTITGAQADDESDYYCLLYMDSGPHWVFGGGTKLTVL 0.74

Please give the measured ELISA signal value of Phage scFv for this binder: P3B9 scFv (scFv) scFv: QIQLVQSGAEVKKPGESLKISCKGSGYSFTSYWIGWVRQMPGKGLEWMGIIYPGDSDTRYSPSFQGQVTISADKSISTAYLQWSSLKASDTAMYYCARRTPRGMDVWGQGTTVTVSSGSASAPTLGQGGGGGSGGGGSGGGGSQAVLTQPPSASGTPGQRVTISCSGSSSNIGSNYVYWYQQLPGTAPKLLIYRNNQRPSGVPDRFSGSKSGTSASLAISGLRSEDEADYYCAAWDDSLSGWVFGGGTKLTVL 3.09

Please give the measured ELISA signal value of Phage scFv for this binder: P2E3 scFv (scFv) scFv: QVQLVQSGAEVKKPGESLKISCKGSGYSFTSYWIGWVRQMPGKGLEWMGIIYPGDSDTRYSPSFQGQVTISADKSISTAYLQWSSLKASDTAMYYCARRSREGFDPWGQGTLVTVSSGSASAPTLGQGGGGGSGGGGSGGGGSQAVLTQPSSASGTPGQRVTMSCSGAASNIGKNFVYWYQQLPGRAPRLLISRNIQRPSEVPDRFSGSKSGTSASLAISGLQSEDEADYYCAAWDDSLNGFVFGTGTAVTVL 3.54
